Test system: HEK293T cells
assay: Toxicity by CellTiter-Glo
Assay type: cell-based, human
recorded conditions: Conc. 62.5 μM
test readout: Toxicity (%)
Unit % implied. Number only.

COCC(=O)Oc1c(Sc2ccc(Cl)cc2)c(C)nn1-c1ccccc1	0
Cc1c(C=O)c(C(=O)O)c(C)n1Cc1ccc(Cl)cc1	20
Cc1ccc(C(Nc2ccccn2)c2c(C)[nH]c3ccccc23)cc1 (stereo not drawn)	90
COc1cccc(C(Nc2ccccn2)c2c(C)[nH]c3ccccc23)c1 (stereo not drawn)	60
Cc1ccc(S(=O)(=O)ON2C(=O)c3ccccc3C2=O)cc1	50
Cc1[nH]c2ccccc2c1C(Nc1ccccn1)c1ccc(F)cc1 (stereo not drawn)	100
Cc1[nH]c2ccccc2c1C(Nc1ccccn1)c1cccc(Cl)c1 (stereo not drawn)	100
COc1ccc(C(Nc2ccccn2)c2c(C)[nH]c3ccccc23)cc1 (stereo not drawn)	100

Now look at this one.
## Input For COc1ccc(OC)c(S(=O)(=O)ON2C(=O)c3ccccc3C2=O)c1 , what is its reported Toxicity (%)?
## Output 50

----------
assay: in vitro
recorded conditions: PAMPA, pH 7.4
Each record gets a class by Papp: low = under 0.01 ×10⁻⁶ cm/s, intermediate = from 0.01 ×10⁻⁶ cm/s up to 0.2 ×10⁻⁶ cm/s, high = 0.2 ×10⁻⁶ cm/s and over

Cc1[nH]c2ccccc2c1C(Nc1ccccc1)c1ccc(CCCO)cc1 (centres unmarked) [30i]	intermediate

## Input Hi there! Could you help me figure out the category for Cc1cccc(N2COc3ccc4ccccc4c3C2)c1 please?
## Output high

## Input Check Cc1c(C=O)c(C(=O)O)c(C)n1Cc1ccc(Cl)cc1 too.
## Output low

## Input Check COc1ccc(OC)c(S(=O)(=O)ON2C(=O)c3ccccc3C2=O)c1 too.
## Output intermediate

## Input Check O=Cc1nc2ccccc2n1Cc1ccc2ccccc2c1 too.
## Output high

## Input Check CCS(=O)(=O)c1oc(-c2cccs2)nc1S(=O)(=O)c1ccccc1 too.
## Output high

## Input Check CCc1ccc(S(=O)(=O)ON2C(=O)c3ccccc3C2=O)cc1 too.
## Output intermediate

## Input Check COC(=O)c1ccc2c(c1)C(C)(C)C(/C=C/c1ccc(OC)cc1)=[N+]2C too.
## Output intermediate

## Input Check CCCCNC(=O)Cn1sc2nc(C)cc(C)c2c1=O too.
## Output intermediate

## Input Check COc1ccc(/C=C/C2=[N+](C)c3ccc(OC)cc3C2(C)C)cc1 too.
## Output high

## Input Check Nc1nc2ccc(S(=O)(=O)N3CCCCC3)cc2s1 too.
## Output intermediate

----------
assay: in vitro
recorded conditions: PAMPA, pH 7.4
test readout: Papp (nm/s)
Unit nm/s implied. Number only.

These solved cases illustrate the format of a correct answer.
CCCS(=O)(=O)c1oc(-c2cccs2)nc1S(=O)(=O)c1ccc(F)cc1 [compound 7]	2.51
COC(=O)c1ccc(/C=C/C2=[N+](C)c3ccc(OC)cc3C2(C)C)cc1 [compound 4]	0.117
COCC(=O)Oc1c(Sc2ccc(Cl)cc2)c(C)nn1-c1ccccc1 [compound 26]	0.331
CC(C)CS(=O)(=O)c1oc(-c2cccs2)nc1S(=O)(=O)c1ccc(F)cc1 [compound 9]	1.66
O=Cc1nc2ccccc2n1Cc1ccc(Cl)cc1Cl [compound 25]	3.02

## Input For Cc1ccc(S(=O)(=O)ON2C(=O)c3ccccc3C2=O)cc1 [compound 20] , what is its reported Papp?
## Output 0.0195

## Input Check CC(C)S(=O)(=O)c1oc(-c2cccs2)nc1S(=O)(=O)c1ccccc1 [compound 10] too.
## Output 4.37

## Input Check COC(=O)c1ccc2c(c1)C(C)(C)C(/C=C/c1ccc(O)cc1)=[N+]2C [compound 5] too.
## Output 0.2

## Input Check CCOc1ccc(/C=C/C2=[N+](C)c3ccc(C(=O)OC)cc3C2(C)C)cc1 [compound 3] too.
## Output 0.0603
